MEASUREMENT TARGET: UniProt:Q13133
ASSAY DETAILS: biochemical
TEST PARAMETERS: Receptor-binding affinity pKi LXRα, value (SD, n independent experiments)
pKi: −log10 of the molar value.
EXPERIMENTAL READOUT: pKi

> print(dat)
                                   compound  experimental.readout  assay.result
1  CN(C)C(=O)c1cnc(N2CC[C@@H](CNC3=C(c4ccccc4)S(=O)(=O)N(C(C)(C)C)C3=O)C2)c(Cl)c1 [AZ5]                   pKi          5.67
2  CN(C)C(=O)c1cccc(CCCCNC2=C(c3ccccc3)S(=O)(=O)N(C(C)(C)C)C2=O)c1 [AZ1]                   pKi          7.04
3  O=C(O)Cc1cccc(OCCCN(Cc2cccc(C(F)(F)F)c2Cl)CC(c2ccccc2)c2ccccc2)c1 [GW3965, reference compound]                   pKi          6.80

* * *

System: plasma triglycerides
ASSAY DETAILS: plasma TG induction in C57BL/6 mice vs plasma compound concentration (log-linear model)
Format: in vivo, mouse
TEST PARAMETERS: mouse, in vivo
EXPERIMENTAL READOUT: TG induction in plasma Attributed class

> print(dat)
                                    molecule   assay.result
 1  CC(C)N1C(=O)C(NC2CCN(c3ncc(CC(=O)O)cc3Cl)CC2)=C(c2ccccc2)S1(=O)=O [AZ6]  Non-lipogenic
 2  CC(C)(C)N1C(=O)C(Nc2ccc(N3CCCCC3)cc2)=C(c2ccccc2)S1(=O)=O [AZ876]      Lipogenic
 3  CC(C)(C)N1C(=O)C(Cc2ccccc2)=C(NC2CCN(c3ncc(CC(=O)O)cc3Cl)CC2)C1=O [AZ7]  Non-lipogenic
 4  CC(C)(O)c1cn(-c2ccc(-c3cc(F)c(CO)c(S(C)(=O)=O)c3)cc2F)c(C(C)(C)c2c(Cl)cccc2Cl)n1 [BMS-852927]  Non-lipogenic
 5  O=S(=O)(c1ccccc1)N(CC(F)(F)F)c1ccc(C(O)(C(F)(F)F)C(F)(F)F)cc1 [T0901317, reference compound]      Lipogenic
 6  O=C1C(Cc2ccccc2)=C(NCCCCc2ccccc2)C(=O)N1Cc1ccccc1 [AZ8]  Non-lipogenic
 7  O=C(O)Cc1ccc(COc2cccc(-c3c(Cc4ccccc4)cnc4c(C(F)(F)F)cccc34)c2)cc1 [WAY-254011, reference compound]      Lipogenic
 8  O=C(O)Cc1ccc(CNC(=O)[C@@H]2Cc3ccccc3N2S(=O)(=O)c2ccc(-c3ccccc3C(F)(F)F)cc2)cc1 [F1, reference compound]      Lipogenic
 9  CN(C)C(=O)c1cccc(CCCCNC2=C(c3ccccc3)S(=O)(=O)N(C(C)(C)C)C2=O)c1 [AZ1]      Lipogenic
10  Fc1ccc(-c2c3cccc(C(F)(F)F)c3nn2Cc2ccc(F)cc2Cl)cc1 [LXR-623, reference compound]  Non-lipogenic
11  O=C(O)Cc1cccc(OCCCN(Cc2cccc(C(F)(F)F)c2Cl)CC(c2ccccc2)c2ccccc2)c1 [GW3965, reference compound]  Non-lipogenic

* * *

MEASUREMENT TARGET: LXRβ (Homo sapiens)
Construct: expression vectors pSG5-Gal4-LXRα LBD or pSG5-Gal4-LXRβ LBD; expressed in transfected cells; host or cells: U2OS osteosarcoma cells
Sequence (P55055 222-460 limits assumed): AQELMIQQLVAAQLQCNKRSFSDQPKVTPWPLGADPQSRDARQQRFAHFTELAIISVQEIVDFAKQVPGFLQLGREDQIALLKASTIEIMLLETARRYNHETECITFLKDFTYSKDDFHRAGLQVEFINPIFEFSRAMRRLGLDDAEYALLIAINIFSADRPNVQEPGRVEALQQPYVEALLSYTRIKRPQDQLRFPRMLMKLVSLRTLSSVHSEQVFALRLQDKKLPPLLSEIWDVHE
ASSAY DETAILS: Gal4 one hybrid reporter gene (transactivation) assay in U2OS cells, LXRβ
Assay type: cell-based
TEST PARAMETERS: LXRβ transactivation pEC50, U2OS cells, Gal4-LXRβ LBD; value (SD, n)

COMPOUND	EC50
C[C@H](CC[C@@H]1OC1(C)C)[C@H]1CC[C@H]2[C@@H]3CC=C4C[C@@H](O)CC[C@]4(C)[C@H]3CC[C@]12C [24,25EC, 24(S),25-epoxycholesterol, reference compound]	> 50.1 µM

* * *

MEASUREMENT TARGET: LXRβ LBD (Homo sapiens, UniProt P55055)
ASSAY DETAILS: biochemical
TEST PARAMETERS: Receptor-binding affinity pKi LXRβ, value (SD, n independent experiments)
Entry class follows Ki: bucket 1: < 20 nM; bucket 2: ≥ 20 nM and < 80 nM; bucket 3: ≥ 80 nM

COMPOUND	CLASS NAME
CC(C)N1C(=O)C(NCCCCc2cccc(S(N)(=O)=O)n2)=C(c2ccccc2)S1(=O)=O	bucket 1
CC(C)(C)N1C(=O)C(Cc2ccccc2)=C(NC2CCN(c3ncc(CC(=O)O)cc3Cl)CC2)C1=O	bucket 3
CC(C)N1C(=O)C(NC2CCN(c3ncc(CC(=O)O)cc3Cl)CC2)=C(c2ccccc2)S1(=O)=O	bucket 3
O=C1C(Cc2ccccc2)=C(NCCCCc2ccccc2)C(=O)N1Cc1ccccc1	bucket 2
O=C(O)Cc1cccc(OCCCN(Cc2cccc(C(F)(F)F)c2Cl)CC(c2ccccc2)c2ccccc2)c1 [GW3965, reference compound]	bucket 2
CC(C)(C)N1C(=O)C(NC2CCN(c3ncc(CC(=O)O)cc3Cl)CC2)=C(c2ccccc2)S1(=O)=O	bucket 2
O=C(O)Cc1ccc(CNC(=O)[C@@H]2Cc3ccccc3N2S(=O)(=O)c2ccc(-c3ccccc3C(F)(F)F)cc2)cc1 [F1, reference compound]	bucket 2
CN(C)C(=O)c1cnc(N2CC[C@@H](CNC3=C(c4ccccc4)S(=O)(=O)N(C(C)(C)C)C3=O)C2)c(Cl)c1	bucket 2
CC(CCCc1cccc(S(N)(=O)=O)n1)NC1=C(c2ccccc2)S(=O)(=O)N(C(C)C)C1=O (stereo not drawn)	bucket 1
CN(C)C(=O)c1cccc(CCCCNC2=C(c3ccccc3)S(=O)(=O)N(C(C)(C)C)C2=O)c1	bucket 1
CC(C)(O)c1cn(-c2ccc(-c3cc(F)c(CO)c(S(C)(=O)=O)c3)cc2F)c(C(C)(C)c2c(Cl)cccc2Cl)n1	bucket 1
C[C@H](CC[C@@H]1OC1(C)C)[C@H]1CC[C@H]2[C@@H]3CC=C4C[C@@H](O)CC[C@]4(C)[C@H]3CC[C@]12C [24,25EC, 24(S),25-epoxycholesterol, reference compound]	bucket 3

* * *

MEASUREMENT TARGET: LXRβ (Homo sapiens)
Construct: expression vectors pSG5-Gal4-LXRα LBD or pSG5-Gal4-LXRβ LBD; expressed in transfected cells; host or cells: U2OS osteosarcoma cells
Sequence (P55055 222-460 limits assumed): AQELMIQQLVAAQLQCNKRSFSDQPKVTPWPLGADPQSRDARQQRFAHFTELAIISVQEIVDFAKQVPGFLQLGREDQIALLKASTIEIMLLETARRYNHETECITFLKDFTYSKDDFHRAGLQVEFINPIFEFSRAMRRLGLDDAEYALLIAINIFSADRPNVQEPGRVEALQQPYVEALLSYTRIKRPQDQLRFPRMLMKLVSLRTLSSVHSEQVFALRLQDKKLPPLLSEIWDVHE
ASSAY DETAILS: Gal4 one hybrid reporter gene (transactivation) assay in U2OS cells, LXRβ
Format: cell-based
pEC50: −log10 of the molar value.
EXPERIMENTAL READOUT: pEC50

> print(dat)
                                   compound  experimental.readout  assay.result
1  Fc1ccc(-c2c3cccc(C(F)(F)F)c3nn2Cc2ccc(F)cc2Cl)cc1 [LXR-623, reference compound]                 pEC50          5.73

* * *

This section presents compounds with their documented Ki values.
MEASUREMENT TARGET: LXRα LBD (Homo sapiens)
Sequence (Q13133 200-447): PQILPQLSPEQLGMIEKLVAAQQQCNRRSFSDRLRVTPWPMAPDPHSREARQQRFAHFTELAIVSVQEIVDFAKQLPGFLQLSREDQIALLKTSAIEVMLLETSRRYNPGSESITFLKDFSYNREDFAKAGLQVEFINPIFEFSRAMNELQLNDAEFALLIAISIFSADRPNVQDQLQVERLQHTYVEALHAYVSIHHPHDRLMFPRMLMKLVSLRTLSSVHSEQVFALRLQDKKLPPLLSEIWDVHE
ASSAY DETAILS: biochemical
TEST PARAMETERS: binding affinity to LXRα
EXPERIMENTAL READOUT: Ki (nM)

> print(dat)
                                   compound  assay.result
1  O=C(O)Cc1ccc(CNC(=O)[C@@H]2Cc3ccccc3N2S(=O)(=O)c2ccc(-c3ccccc3C(F)(F)F)cc2)cc1 [F1, reference compound]            10
2  CC(C)(C)N1C(=O)C(Cc2ccccc2)=C(NC2CCN(c3ncc(CC(=O)O)cc3Cl)CC2)C1=O          1000

* * *

This section presents compounds with their documented EC50 values.
MEASUREMENT TARGET: LXRα (Homo sapiens, UniProt Q13133)
Construct: expression vectors pSG5-Gal4-LXRα LBD or pSG5-Gal4-LXRβ LBD; expressed in transfected cells; host or cells: U2OS osteosarcoma cells
Sequence (Q13133 209-447 limits assumed): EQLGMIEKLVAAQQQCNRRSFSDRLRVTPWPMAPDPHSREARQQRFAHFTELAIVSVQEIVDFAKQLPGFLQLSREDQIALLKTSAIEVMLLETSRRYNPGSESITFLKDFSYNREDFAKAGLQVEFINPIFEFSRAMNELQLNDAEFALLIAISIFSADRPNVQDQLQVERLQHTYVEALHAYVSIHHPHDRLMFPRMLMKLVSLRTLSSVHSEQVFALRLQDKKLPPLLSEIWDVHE
ASSAY DETAILS: Gal4 one hybrid reporter gene (transactivation) assay in U2OS cells, LXRα
Type: cell-based
TEST PARAMETERS: U2OS cells, Gal4-LXRα LBD; value (SD, n); read-out: LXRα transactivation pEC50 (converted)

COMPOUND	EC50
O=C(O)Cc1cccc(OCCCN(Cc2cccc(C(F)(F)F)c2Cl)CC(c2ccccc2)c2ccccc2)c1 [GW3965, reference compound]	1100 nM
CC(C)N1C(=O)C(NCCCCc2cccc(S(N)(=O)=O)n2)=C(c2ccccc2)S1(=O)=O [AZ3]	813 nM
CC(C)(C)N1C(=O)C(Cc2ccccc2)=C(NC2CCN(c3ncc(CC(=O)O)cc3Cl)CC2)C1=O [AZ7]	1100 nM
CC(CCCc1cccc(S(N)(=O)=O)n1)NC1=C(c2ccccc2)S(=O)(=O)N(C(C)C)C1=O (stereo not drawn) [AZ2]	77.6 nM
CN(C)C(=O)c1cccc(CCCCNC2=C(c3ccccc3)S(=O)(=O)N(C(C)(C)C)C2=O)c1 [AZ1]	110 nM
O=C(O)Cc1ccc(CNC(=O)[C@@H]2Cc3ccccc3N2S(=O)(=O)c2ccc(-c3ccccc3C(F)(F)F)cc2)cc1 [F1, reference compound]	562 nM
CC(C)(C)N1C(=O)C(NC2CCN(c3ncc(CC(=O)O)cc3Cl)CC2)=C(c2ccccc2)S1(=O)=O [AZ4]	427 nM
O=C1C(Cc2ccccc2)=C(NCCCCc2ccccc2)C(=O)N1Cc1ccccc1 [AZ8]	1740 nM
CN(C)C(=O)c1cnc(N2CC[C@@H](CNC3=C(c4ccccc4)S(=O)(=O)N(C(C)(C)C)C3=O)C2)c(Cl)c1 [AZ5]	1070 nM
C[C@H](CC[C@@H]1OC1(C)C)[C@H]1CC[C@H]2[C@@H]3CC=C4C[C@@H](O)CC[C@]4(C)[C@H]3CC[C@]12C [24,25EC, 24(S),25-epoxycholesterol, reference compound]	> 50100 nM
Fc1ccc(-c2c3cccc(C(F)(F)F)c3nn2Cc2ccc(F)cc2Cl)cc1 [LXR-623, reference compound]	2570 nM
CC(C)N1C(=O)C(NC2CCN(c3ncc(CC(=O)O)cc3Cl)CC2)=C(c2ccccc2)S1(=O)=O [AZ6]	1230 nM
